- Experimental target: T1, human TL1A extracellular domain with N-terminal HIS and FLAG tag (human, UniProt O95150 72-251)
- T1 construct: the whole entry is named
- T1 sequence: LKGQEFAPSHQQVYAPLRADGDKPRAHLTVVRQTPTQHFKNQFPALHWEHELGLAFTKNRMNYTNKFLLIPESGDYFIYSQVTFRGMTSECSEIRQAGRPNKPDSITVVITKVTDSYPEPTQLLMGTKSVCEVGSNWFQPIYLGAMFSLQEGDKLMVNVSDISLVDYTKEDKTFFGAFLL
- Assay overview: SPR Run 6, purified Ab captured on Protein A, TL1A 5 ug/mL, timepoint 170
Value type: TL1A Binding Level (Late)

INSERT INTO assay_data (binder, assay_value) VALUES
  ('320-465 (antibody, human IgG1, name in Kabat numbering, V domains shown, human IgG1, lambda) VH: QVQLVQSGAEVKKPGASVKVSCKASGYTFTSYDIQWVRQAPGQGLEWMGWLNPNSGNTGYAQKFQGRVTMTADRSTSTAYMELSSLRSEDTAVYYCAREVPETAAFEYWGQGTLVTVSS VL: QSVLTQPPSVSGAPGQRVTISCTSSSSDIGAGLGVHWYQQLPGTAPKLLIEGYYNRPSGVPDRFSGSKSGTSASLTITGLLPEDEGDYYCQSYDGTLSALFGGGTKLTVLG', '78 RU'),
  ('320-456 (antibody, human IgG1, name in Kabat numbering, V domains shown, human IgG1, lambda) VH: QVQLVQSGAEVKKPGASVKVSCKASGYTFTSYDQNWVRQAPGQGLEWMGWLNPNSGNTGYAQKFQGRVTMTADRSTSTAYMELSSLRSEDTAVYYCAREVPETAAFEYWGQGTLVTVSS VL: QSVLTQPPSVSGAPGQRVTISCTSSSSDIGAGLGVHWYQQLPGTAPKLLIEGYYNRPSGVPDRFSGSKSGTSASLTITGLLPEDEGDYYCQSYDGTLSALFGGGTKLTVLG', '46 RU'),
  ('320-437 (antibody, human IgG1, name in Kabat numbering, V domains shown, human IgG1, lambda) VH: QVQLVQSGAEVKKPGASVKVSCKASGYTFTYYDINWVRQAPGQGLEWMGWLNPNSGNTGYAQKFQGRVTMTADRSTSTAYMELSSLRSEDTAVYYCAREVPETAAFEYWGQGTLVTVSS VL: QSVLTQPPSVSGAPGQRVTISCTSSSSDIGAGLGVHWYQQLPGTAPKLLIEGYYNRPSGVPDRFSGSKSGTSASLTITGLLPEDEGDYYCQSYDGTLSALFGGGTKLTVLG', '109 RU');
